Where do the numbers come from? From patent US20260116991A1.

# maps each entry to its OD450 nm
target: monkey GPC3-His protein (monkey); assay: ELISA, monkey GPC3-His coated; antibody 66.66 nM
// keep it numeric: no unit symbol after the value

Recorded results for 2 binders are shown here.
{"Binder": "hAb005LH2L1 (antibody, human IgG1, V domains shown) VH: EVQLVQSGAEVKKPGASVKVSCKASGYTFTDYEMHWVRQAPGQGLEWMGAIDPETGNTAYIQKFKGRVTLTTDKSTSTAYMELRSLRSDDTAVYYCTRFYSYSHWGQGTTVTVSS VL: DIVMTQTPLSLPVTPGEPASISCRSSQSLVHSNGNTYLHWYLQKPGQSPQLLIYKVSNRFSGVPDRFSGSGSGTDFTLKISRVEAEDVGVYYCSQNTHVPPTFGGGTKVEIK", "Obs Value": 1.2}
{"Binder": "hAb007LH3L1 (antibody, human IgG1, V domains shown) VH: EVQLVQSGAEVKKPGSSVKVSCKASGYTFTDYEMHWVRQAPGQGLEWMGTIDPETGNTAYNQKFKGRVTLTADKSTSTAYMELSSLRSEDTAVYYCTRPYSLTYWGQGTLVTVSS VL: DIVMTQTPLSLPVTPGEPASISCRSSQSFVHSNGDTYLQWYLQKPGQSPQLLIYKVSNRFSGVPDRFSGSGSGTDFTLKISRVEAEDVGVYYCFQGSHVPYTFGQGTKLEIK", "Obs Value": 2.55}

Turning to the following binder.
Record summary for hAb005LH1L1 (antibody, human IgG1, V domains shown) VH: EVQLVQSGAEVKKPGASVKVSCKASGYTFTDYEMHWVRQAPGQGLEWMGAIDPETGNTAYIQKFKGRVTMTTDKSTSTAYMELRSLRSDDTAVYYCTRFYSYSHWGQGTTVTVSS VL: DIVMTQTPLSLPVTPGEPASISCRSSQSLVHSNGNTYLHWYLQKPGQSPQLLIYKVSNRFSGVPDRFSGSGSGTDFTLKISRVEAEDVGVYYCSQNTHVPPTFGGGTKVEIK : reported OD450 nm = 1.1
